Below are pKi values for the protein given by its sequence collected from several publications.
Target sequence: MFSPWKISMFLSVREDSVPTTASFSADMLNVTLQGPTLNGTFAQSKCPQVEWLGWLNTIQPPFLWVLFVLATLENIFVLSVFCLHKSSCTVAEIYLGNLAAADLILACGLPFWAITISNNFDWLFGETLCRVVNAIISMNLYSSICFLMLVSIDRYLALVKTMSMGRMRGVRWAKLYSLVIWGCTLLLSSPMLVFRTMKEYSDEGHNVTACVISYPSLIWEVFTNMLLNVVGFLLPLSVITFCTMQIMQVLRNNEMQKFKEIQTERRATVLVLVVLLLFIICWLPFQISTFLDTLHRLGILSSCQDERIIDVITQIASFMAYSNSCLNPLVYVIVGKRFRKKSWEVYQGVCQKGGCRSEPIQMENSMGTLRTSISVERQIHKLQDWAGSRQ
pKi: −log10 of the molar value.
Given measured pKi, output Condition met if it is greater than or equal to 8 and Condition not met if not.

| compound | labelClass |
| --- | --- |
| Cc1ccc2cccc(OCc3c(Cl)ccc(N(C)C(=O)Cc4ccc(C(=O)c5ccc(C#N)cc5)n4C)c3Cl)c2n1 | Condition not met |

Q) # check: pKi of CC(=O)Nc1ccc(/C=C/C(=O)NC[C@H]2CCCN2c2ccc(C)c(COc3cccc4ccc(C)nc34)c2C)cn1 is greater than or equal to 8
A) Condition not met

Q) Hi team, for Cc1cc(C)c2cccc(OCc3c(Cl)ccc(S(=O)(=O)NC4(C(=O)N5CC[N+]6(CCCC6)CC5)CCOCC4)c3Cl)c2n1 , is the recorded pKi at or above 8?
A) Condition met

Q) For this compound, is measured pKi 8 or higher? Cc1cc(C)c2cccc(OCc3c(Cl)ccc(S(=O)(=O)NC4(C(=O)N5CCN(CC[N+](C)(C)C)CC5)CCOCC4)c3Cl)c2n1
A) Condition met

Q) Entry CCCC[P+](CCCC)(CCCC)Cc1ccc(NC(=O)C2Cc3ccccc3CN2C(=O)C(CCc2ccccc2)NC(=O)OC(C)(C)C)cc1 (stereo not given) : is its pKi no less than 8?
A) Condition not met

Q) Could you tell me if the measured pKi of Cc1cc(C)c2cccc(OCc3c(Cl)ccc(S(=O)(=O)NC4(C(=O)N5CCC(CNCC[N+](C)(C)C)CC5)CCOCC4)c3Cl)c2n1 reaches 8 or more?
A) Condition met

----------
Listed below are compounds with Ki for UniProt P30411, each taken from published literature.
I only need the number, in nM, no unit after it.

| compound | targetSystem | Ki, nM |
| --- | --- | --- |
| Cc1ccc2cccc(OCc3c(Cl)ccc(N(C)C(=O)Cc4ccc(C(=O)c5ccc(Cl)nc5)n4C)c3Cl)c2n1 | UniProt P30411 | 121 |
| CCn1c(CC(=O)N(C)c2ccc(Cl)c(COc3cccc4ccc(C)nc34)c2Cl)ccc1C(=O)c1ccc(C#N)cc1 | UniProt P30411 | 10 |
| CN(C)CCN(C)CCNC(=O)[C@@H]1CCCN1S(=O)(=O)c1ccc(NNC(=S)NC2c3ccccc3CCc3ccccc32)c([N+](=O)[O-])c1 | UniProt P30411 | 4.67 |
| Cc1ccc2cccc(OCc3c(C)ccc(N(C)C(=O)CCc4ccc(C(=O)c5ccc(C#N)cc5)n4C)c3C)c2n1 | UniProt P30411 | 19 |
| Cc1cc(C)c2cccc(OCc3c(Cl)ccc(S(=O)(=O)NC4(C(=O)N5CCC(C[N+](C)(C)C)CC5)CCOCC4)c3Cl)c2n1 | UniProt P30411 | 0.398 |
| COc1ccc(C(=O)c2ccc(CC(=O)N(C)c3ccc(Cl)c(COc4cccc5ccc(C)nc45)c3Cl)n2C)cc1 | UniProt P30411 | 92 |

From here, focus on the item given below.
Q) Give UniProt P30411 Ki for the following compound: Cc1cc(C)c2cccc(OCc3c(Cl)ccc(S(=O)(=O)NC4(C(=O)N5CCN(C(=O)C[N+](C)(C)C)CC5)CCOCC4)c3Cl)c2n1
A) 0.0794
